# target.or.system: Rho-associated protein kinase 1 (Homo sapiens, UniProt Q13464)
# Sequence (Q13464 whole entry): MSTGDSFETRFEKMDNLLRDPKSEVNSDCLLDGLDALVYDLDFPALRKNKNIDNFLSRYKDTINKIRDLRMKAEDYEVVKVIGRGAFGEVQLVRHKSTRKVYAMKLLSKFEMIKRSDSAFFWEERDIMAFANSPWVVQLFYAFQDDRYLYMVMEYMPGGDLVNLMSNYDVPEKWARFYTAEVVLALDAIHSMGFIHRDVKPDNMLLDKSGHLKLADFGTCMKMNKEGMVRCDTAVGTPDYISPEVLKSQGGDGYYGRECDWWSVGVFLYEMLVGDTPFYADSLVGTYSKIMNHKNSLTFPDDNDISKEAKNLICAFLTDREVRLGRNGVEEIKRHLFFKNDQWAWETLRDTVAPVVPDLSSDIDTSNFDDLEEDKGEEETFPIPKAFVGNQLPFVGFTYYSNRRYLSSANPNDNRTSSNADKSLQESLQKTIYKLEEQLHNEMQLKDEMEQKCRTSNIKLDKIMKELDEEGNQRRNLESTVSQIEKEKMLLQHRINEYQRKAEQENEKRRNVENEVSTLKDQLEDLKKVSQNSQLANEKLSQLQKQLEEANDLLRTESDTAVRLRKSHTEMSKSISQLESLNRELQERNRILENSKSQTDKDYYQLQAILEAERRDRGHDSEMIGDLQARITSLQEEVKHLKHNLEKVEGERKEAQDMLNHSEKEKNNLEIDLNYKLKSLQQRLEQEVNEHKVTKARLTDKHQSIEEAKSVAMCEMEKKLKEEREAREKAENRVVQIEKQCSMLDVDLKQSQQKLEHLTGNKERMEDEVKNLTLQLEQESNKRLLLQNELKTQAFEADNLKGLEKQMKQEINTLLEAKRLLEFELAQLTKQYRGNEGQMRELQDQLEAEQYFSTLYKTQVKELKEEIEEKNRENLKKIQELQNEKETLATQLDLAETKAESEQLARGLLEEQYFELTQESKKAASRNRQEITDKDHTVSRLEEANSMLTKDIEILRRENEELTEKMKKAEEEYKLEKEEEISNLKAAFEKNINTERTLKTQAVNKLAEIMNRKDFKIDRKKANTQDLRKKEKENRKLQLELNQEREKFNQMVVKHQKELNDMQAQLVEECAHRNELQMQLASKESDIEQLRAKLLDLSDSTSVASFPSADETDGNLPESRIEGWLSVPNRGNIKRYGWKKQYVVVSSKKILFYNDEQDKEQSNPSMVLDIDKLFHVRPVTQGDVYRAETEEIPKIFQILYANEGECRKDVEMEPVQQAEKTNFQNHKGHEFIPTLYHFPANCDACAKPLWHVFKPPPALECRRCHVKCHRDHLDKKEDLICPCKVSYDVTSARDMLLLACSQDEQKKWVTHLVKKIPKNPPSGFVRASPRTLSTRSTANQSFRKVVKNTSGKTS
# experiment: Inhibition of human recombinant ROCK1
Hi there, I'd appreciate the recorded IC50 for every entry that follows.
Answers are plain numbers, in nM.

Solved entries (count: 4):
>  <structure.as.smiles>
CN1CCCN(c2nc(-c3ccncc3)cnc2N2CCOCC2)CC1

>  <target.or.system>
Rho-associated protein kinase 1 (Homo sapiens, UniProt Q13464)

>  <measured.property>
IC50

>  <measured.value>
68000

$$$$
>  <structure.as.smiles>
CN1CCCN(c2nc(-c3ccnc4[nH]ccc34)cnc2N)CC1

>  <target.or.system>
Rho-associated protein kinase 1 (Homo sapiens, UniProt Q13464)

>  <measured.property>
IC50

>  <measured.value>
1500

$$$$
>  <structure.as.smiles>
CNCC1CCN(c2nc(-c3ccncc3)cnc2N2CCCC2)CC1

>  <target.or.system>
Rho-associated protein kinase 1 (Homo sapiens, UniProt Q13464)

>  <measured.property>
IC50

>  <measured.value>
150

$$$$
>  <structure.as.smiles>
CNc1ncc(-c2ccncc2)nc1N1CCCN(C)CC1

>  <target.or.system>
Rho-associated protein kinase 1 (Homo sapiens, UniProt Q13464)

>  <measured.property>
IC50

>  <measured.value>
6900

$$$$

// fetch IC50 given entry "c1cc(-c2cnc(N3CCCC3)c(N3CCCNCC3)n2)c2cc[nH]c2n1" 170

====

# target.or.system: Rho-associated protein kinase 1 (Homo sapiens, UniProt Q13464)
# experiment: Inhibition of human recombinant ROCK1
pIC50: −log10 of the molar value.
Please use 1 (yes) whenever pIC50 is not below 6, and 0 (no) whenever it is.

Worked examples, 3 molecules total:
>  <structure.as.smiles>
c1cc(-c2cnc(N3CCCC3)c(N3CCCNCC3)n2)ccn1

>  <label.class>
1 (yes)

$$$$
>  <structure.as.smiles>
COCCNc1ncc(-c2ccncc2)nc1N1CCCN(C)CC1

>  <label.class>
0 (no)

$$$$
>  <structure.as.smiles>
CN1CCCN(c2nc(-c3ccncc3)cnc2N2CCCCC2)CC1

>  <label.class>
0 (no)

$$$$

Entry "CN1CCCN(c2nc(-c3ccncc3)cnc2N(C)C)CC1" : is its pIC50 no less than 6? 0 (no)

Entry "NC1CCN(c2nc(-c3ccncc3)cnc2N2CCCC2)CC1" : is its pIC50 no less than 6? 1 (yes)

Entry "CCN(CC)c1ncc(-c2ccncc2)nc1N1CCCN(C)CC1" : is its pIC50 no less than 6? 0 (no)

Entry "NCC1CCN(c2nc(-c3ccncc3)cnc2N2CCCC2)CC1" : is its pIC50 no less than 6? 1 (yes)

====

# target.or.system: Rho-associated protein kinase 1 (Homo sapiens, UniProt Q13464)
# experiment: Inhibition of human recombinant ROCK1
Hi there, I'd appreciate the recorded pIC50 for every entry that follows.
Answers are plain numbers, as −log10 of the molar value.

>  <structure.as.smiles>
Nc1ncc(-c2ccncc2)nc1N1CCN(CCO)CC1

>  <target.or.system>
Rho-associated protein kinase 1 (Homo sapiens, UniProt Q13464)

>  <pIC50>
5.34

$$$$

Kindly give each listed record's pIC50.
1. CN1CCCN(c2nc(-c3ccncc3)cnc2N2CCCC2)CC1
2. CN1CCCN(c2nc(-c3cc[nH]n3)cnc2N)CC1
3. OCCN1CCN(c2nc(-c3ccncc3)cnc2N2CCCC2)CC1
4. CN1CCCN(c2nc(-c3ccnc(N)c3)cnc2N)CC1

1: 5.22; 2: 4.43; 3: 6.52; 4: 4.60

Kindly give each listed record's pIC50.
1. COCCN(C)c1ncc(-c2ccncc2)nc1N1CCCN(C)CC1
2. CN1CCCN(c2nc(-c3cccc4[nH]ncc34)cnc2N)CC1
3. Cc1cnccc1-c1cnc(N)c(N2CCCN(C)CC2)n1
4. CN1CCCN(c2nc(-c3ccc4[nH]ncc4c3)cnc2N)CC1

1: 4.32; 2: 5.02; 3: 3.92; 4: 5.64

Kindly give each listed record's pIC50.
1. c1cc(-c2cnc(N3CCCC3)c(N3CCNCC3)n2)ccn1
2. CN1CCCN(c2nc(-c3ccncc3)cnc2NCCO)CC1

1. 6.21
2. 4.38
